System: anesthetized juvenile pigs
Assay: animal or person
Type: in vivo
Conditions: pig, in vivo

| Molecule | ΔBP (change in arterial blood pressure), % |
| --- | --- |
| COc1cc(C[N+]2(C)C3CCC2CC(OC(=O)C2C4C=CC(C4)C2C(=O)OC2CC4CCC(C2)[N+]4(C)Cc2ccc(OC(C)=O)c(OC)c2)C3)ccc1OC(C)=O.[Br-].[Br-] (stereo not drawn) | 0 |
| COc1cc2c(cc1OC)[C@@H](Cc1cc(OC)c(OC)c(OC)c1)[N+](C)(CCCOC(=O)CC/C=C/CCC(=O)OCCC[N+]1(C)CCc3cc(OC)c(OC)cc3[C@H]1Cc1cc(OC)c(OC)c(OC)c1)CC2 (stereo partly drawn) [Mivacurium, reference compound] | 0 |
| CC(=O)Oc1ccc(C[N+]2(C)C3CCC2CC(OC(=O)C2C4C=CC(C4)C2C(=O)OC2CC4CCC(C2)[N+]4(C)Cc2ccc(OC(C)=O)c(OC(C)=O)c2)C3)cc1OC(C)=O.[Br-].[Br-] (stereo not drawn) [bis[N-(3,4-diacetoxybenzyl)tropanium-3α-yl]trans-3,6-endomet] | 0 |
